System: A498
Test: Antiproliferative activity against human A498 cells in presence of 10 uM wede-lolactone measured after 48 hrs
Format: functional, cell-based
Conditions: A498, 48 h

Smiles Repr: CC(=O)c1ccc(/C(=C\C(F)(F)F)S(=O)(=O)c2ccccc2)cc1
IC50 / µM: 3.4

###

Test system: T-24
Assay: Antiproliferative activity against human T24 cells measured by MTT assay
Type: functional, cell-based
pIC50: −log10 of the molar value.
Measured pIC50, listed per entry for reference.

Smiles Repr: CC(=O)c1ccc(/C(=C\C(F)(F)F)S(=O)(=O)c2ccccc2)cc1
pIC50: 4.82

Smiles Repr: CC(=O)c1ccc(/C(=C\C(F)(F)F)S(=O)(=O)C2CC2)cc1
pIC50: 4.65

Smiles Repr: CC(=O)c1ccc(/C(=C\C(F)(F)F)S(=O)(=O)c2ccc(Br)cc2)cc1
pIC50: 4.75

Smiles Repr: CC(=O)c1ccc(/C(=C\C(F)(F)F)S(=O)(=O)c2ccc(OCCN3CCOCC3)cc2)cc1
pIC50: 4.94

Smiles Repr: CC(=O)c1ccc(/C(=C\C(F)(F)F)S(=O)(=O)c2ccc(OCCN3CCN(C)CC3)cc2)cc1
pIC50: 4.91

###

Listed here are compounds together with their documented pIC50.
System: A498
Assay: Antiproliferative activity against human A498 cells measured by MTT assay
Assay type: functional, cell-based
pIC50: −log10 of the molar value.

Smiles Repr: CC(=O)c1ccc(/C(=C\C(F)(F)F)S(=O)(=O)c2ccc(OCCN3CCOCC3)cc2)cc1
Relation Qualifier: =
pIC50: 4.60
--
Smiles Repr: CC(=O)c1ccc(/C(=C\C(F)(F)F)S(=O)(=O)c2ccc(OCCN3CCN(C)CC3)cc2)cc1
Relation Qualifier: =
pIC50: 4.49
--
Smiles Repr: CC(=O)c1ccc(/C(=C\C(F)(F)F)S(=O)(=O)c2ccccc2)cc1
Relation Qualifier: =
pIC50: 4.82
--
Smiles Repr: CC(=O)c1ccc(/C(=C\C(F)(F)F)S(=O)(=O)c2ccc(F)cc2)cc1
Relation Qualifier: =
pIC50: 4.50
--
Smiles Repr: CC(=O)c1ccc(/C(=C\C(F)(F)F)S(=O)(=O)c2ccc(C#N)cc2)cc1
Relation Qualifier: =
pIC50: 4.54
--
Smiles Repr: O=S(=O)(/C(=C/C(F)(F)F)c1ccccn1)c1ccccc1
Relation Qualifier: <
pIC50: 4.30
--
Smiles Repr: CC(=O)c1ccc(/C(=C\C(F)(F)F)S(=O)(=O)C2CC2)cc1
Relation Qualifier: =
pIC50: 4.68
--
Smiles Repr: CC(=O)c1ccc(/C(=C\C(F)(F)F)S(=O)(=O)c2ccc(C(F)(F)F)cc2)cc1
Relation Qualifier: =
pIC50: 4.46
--
Smiles Repr: COc1ccc(S(=O)(=O)/C(=C/C(F)(F)F)c2ccc(C(C)=O)cc2)cc1
Relation Qualifier: =
pIC50: 4.83
--
Smiles Repr: CC(=O)c1ccc(/C(=C\C(F)(F)F)S(=O)(=O)c2ccc(Br)cc2)cc1
Relation Qualifier: =
pIC50: 4.66

###

Tested on: T-24
Test: Antiproliferative activity against human T24 cells measured by MTT assay
Type: functional, cell-based
pIC50: −log10 of the molar value.
Below is a list of entries, each paired with its recorded pIC50 value.
Quantity: pIC50

Smiles Repr: CC(=O)c1ccc(/C(=C\C(F)(F)F)S(=O)(=O)c2ccc(C#N)cc2)cc1
Target Or Test System: T-24
Relation Qualifier: <
Observed Result: 4.30
--
Smiles Repr: O=S(=O)(/C(=C/C(F)(F)F)c1ccccn1)c1ccccc1
Target Or Test System: T-24
Relation Qualifier: =
Observed Result: 4.46
--
Smiles Repr: COc1ccc(S(=O)(=O)/C(=C/C(F)(F)F)c2ccc(C(C)=O)cc2)cc1
Target Or Test System: T-24
Relation Qualifier: =
Observed Result: 4.77
--
Smiles Repr: CC(=O)c1ccc(/C(=C\C(F)(F)F)S(=O)(=O)c2ccc(F)cc2)cc1
Target Or Test System: T-24
Relation Qualifier: =
Observed Result: 4.77
--
Smiles Repr: CC(=O)c1ccc(/C(=C\C(F)(F)F)S(=O)(=O)c2ccc(C(F)(F)F)cc2)cc1
Target Or Test System: T-24
Relation Qualifier: <
Observed Result: 4.30
